Source: patent US7259004B1

test: CellTiter 96 Aqueous Non-Radioactive Cell Proliferation Assay; format: cell-based, human; conditions: human, text of Examples 18, 19; read-out: IC50 cytotoxicity, human mammary epithelial cells
measurement-name: IC50 at 48 h (µg/mL)
Please state the figure in µg/mL; there is no need to write the unit.

[in] Reported IC50 at 48 h, compound CS[C@H]1SC[C@H]2C(=O)N(C)[C@@H](C(C)C)C(=O)OC[C@@H](NC(=O)c3cnc4ccccc4n3)C(=O)N[C@@H](C)C(=O)N(C)[C@@H]1C(=O)N(C)[C@@H](C(C)C)C(=O)OC[C@@H](NC(=O)c1cnc3ccccc3n1)C(=O)N[C@@H](C)C(=O)N2C [Echinomycin, reference compound] : ____
[out] 4.8

====

system: B. subtilis 1A757; test: microbe, parasite or virus in culture; type: cell-based, Bacillus subtilis
1×MIC against Bacillus subtilis values for the molecules below.
Please state the figure in micrograms/ml; there is no need to write the unit.

Study these solved cases before continuing.
molecule: CN[C@H](CC(C)C)C(=O)N[C@H]1C(=O)N[C@@H](CC(N)=O)C(=O)N[C@H]2C(=O)N[C@H]3C(=O)N[C@H](C(=O)N[C@H](C(=O)O)c4cc(O)cc(O)c4-c4cc3ccc4O)[C@H](O)c3ccc(c(Cl)c3)Oc3cc2cc(c3O[C@@H]2O[C@H](CO)[C@@H](O)[C@H](O)[C@H]2O[C@H]2C[C@](C)(N)[C@H](O)[C@H](C)O2)Oc2ccc(cc2Cl)[C@H]1O [Vancomycin, reference compound]
target-desc: B. subtilis 1A757
unit-of-measurement: micrograms/ml
1×MIC against Bacillus subtilis: 0.25
//
molecule: O=C(N[C@H](CO)[C@H](O)c1ccc([N+](=O)[O-])cc1)C(Cl)Cl [Chloramphenicol, reference compound]
target-desc: B. subtilis 1A757
unit-of-measurement: micrograms/ml
1×MIC against Bacillus subtilis: 4
//
molecule: CS[C@H]1SC[C@H]2C(=O)N(C)[C@@H](C(C)C)C(=O)OC[C@@H](NC(=O)c3cnc4ccccc4n3)C(=O)N[C@@H](C)C(=O)N(C)[C@@H]1C(=O)N(C)[C@@H](C(C)C)C(=O)OC[C@@H](NC(=O)c1cnc3ccccc3n1)C(=O)N[C@@H](C)C(=O)N2C [Echinomycin, reference compound]
target-desc: B. subtilis 1A757
unit-of-measurement: micrograms/ml
1×MIC against Bacillus subtilis: 0.25

Turning to the following molecule.
[in] Reported 1×MIC against Bacillus subtilis, molecule CO[C@H]1/C=C/O[C@@]2(C)Oc3c(C)c(O)c4c(O)c(c(/C=N/N5CCN(C)CC5)c(O)c4c3C2=O)NC(=O)/C(C)=C\C=C\[C@H](C)[C@H](O)[C@@H](C)[C@@H](O)[C@@H](C)[C@H](OC(C)=O)[C@@H]1C [Rifampicin, reference compound] : ____
[out] 0.25

====

assay: CellTiter 96 Aqueous Non-Radioactive Cell Proliferation Assay; format: cell-based, human; conditions: human, Example 15; read-out: IC50 cytotoxicity, human mammary epithelial cells
measurement-name: IC50 at 48 h (mg/L)
Please state the figure in mg/L; there is no need to write the unit.

[in] Reported IC50 at 48 h, compound CS[C@H]1SC[C@H]2C(=O)N(C)[C@@H](C(C)C)C(=O)OC[C@@H](NC(=O)c3cnc4ccccc4n3)C(=O)N[C@@H](C)C(=O)N(C)[C@@H]1C(=O)N(C)[C@@H](C(C)C)C(=O)OC[C@@H](NC(=O)c1cnc3ccccc3n1)C(=O)N[C@@H](C)C(=O)N2C [Echinomycin, reference compound] : ____
[out] 0.0108
